Ref: BindingDB's records for doi:10.1021/jm9900016

Biological target: Thymidylate synthase (Lactobacillus casei)
Experiment: In vitro inhibition of Lactobacillus casei Thymidylate synthase.
pKi: −log10 of the molar value.
Cut-off 6 on pKi, inclusive. At or above means YES; below means NO.

compound: O=C1OC(c2ccc(O)cc2)(c2ccc(O)cc2)c2cc3ccccc3cc21
system name: Thymidylate synthase (Lactobacillus casei)
class assignment: NO
--
compound: O=C1OC(O)(c2ccc(O)c(Cl)c2)c2ccc([N+](=O)[O-])c3cccc1c23 (stereo not drawn)
system name: Thymidylate synthase (Lactobacillus casei)
class assignment: YES
--
compound: O=C1OC(O)(c2ccccc2O)c2cccc3cccc1c23 (stereo not drawn)
system name: Thymidylate synthase (Lactobacillus casei)
class assignment: NO
--
compound: O=C1OC(c2ccc(O)c(Cl)c2)(c2ccc(O)c(Cl)c2)c2ccccc21
system name: Thymidylate synthase (Lactobacillus casei)
class assignment: NO
